test: Oral bioavailability in rat; format: ADME, organism-based; conditions: in vivo
Kindly state bioavailability for each of the entries shown.
State the answer as a number, implicitly in %.

Q: bioavailability for CC(C)[C@@H](O)CC[C@@H](C)[C@H]1CC[C@H]2[C@@H]3CC=C4C[C@@H](O)CC[C@]4(C)[C@H]3CC[C@]12C ?
A: 9

Q: For the compound shown here, C[C@H](CCC(C)(C)O)[C@H]1CC[C@H]2[C@@H]3CC=C4C[C@@](C)(O)CC[C@]4(C)[C@H]3CC[C@]12C , give the reported bioavailability.
A: 28

Q: Which bioavailability is listed for CC(C)[C@H](O)CC[C@@H](C)[C@H]1CC[C@H]2[C@@H]3CC=C4C[C@@](C)(O)CC[C@]4(C)[C@H]3CC[C@]12C ?
A: 25
